- test: LNCaP granularity increase inducers, single-point recheck – cell-based, side scatter shift, flow cytometry, confirmation (AID 1069);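 note: LNCaP human prostate cancer cells in low-serum medium with charcoal-stripped FBS; percent of cells with raised granularity gated so DMSO controls show 10%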
- assay context: LNCaP differentiation, 4 d, at 100 µM, stronger effect = higher value
The class of a record is decided solely by its measured side scatter shift; consult class 1 = under 8%, class 2 = from 8% up to 20%, class 3 = 20% and over

Examples with answers:
molecule | assigned class
Cc1nc(NCCNC(=O)c2ccco2)c2c(C)c(C)sc2n1 | class 3
COc1ccc(-c2cc(C(F)(F)F)nc(N3CCN(c4ccc(F)cc4)CC3)n2)cc1OC | class 3
O=c1cc(N2CCc3ccccc3C2)[nH]c(=O)n1C1CCCCC1 | class 2
O=C(CN1CCC(n2nnc3cc(F)ccc32)CC1)Nc1ccc2c(c1)CCC2 | class 1

Request: Quick check: band for CCOC(=O)C1CCN(c2nc3ccccc3nc2C(C#N)C(=O)OCCOC)CC1 (stereo unspecified)
Result: class 2

Request: // bin(item) where item = CCc1ccc(-c2nc(CN3CCC(C(=O)NCc4ccc(F)cc4)CC3)c(C)o2)cc1
Result: class 1

Request: Category of CCOc1ccc(C(=O)Nc2ccc(Cl)cn2)cc1Cl , please.
Result: class 3

Request: Lab note: sort COC(=O)Nc1sccc1C(=O)Nc1sccc1C(=O)OC into the matching side scatter shift band.
Result: class 2

Request: For this molecule, which bin applies? C=C(C)Cn1c(-c2ccccc2)nc2ccccc21
Result: class 1

Request: Which bin should I file CCOC(=O)CSc1nnc(CNC(=O)c2ccccc2OC)n1-c1ccc(OC)cc1 under?
Result: class 2

====

- test: LNCaP granularity increase inducers, single-point recheck – cell-based, side scatter shift, flow cytometry, confirmation (AID 1069);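 note: LNCaP human prostate cancer cells in low-serum medium with charcoal-stripped FBS; percent of cells with raised granularity gated so DMSO controls show 10%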
- assay context: LNCaP differentiation, 4 d, side scatter shift, at 10 µM, stronger effect = higher value
observation type: side scatter shift (%)
Give bare numbers, in %.

molecule | side scatter shift [%]
COc1cccc(-c2cc(C(=O)N3CCN(C(c4ccccc4)c4ccccc4)CC3)no2)c1 | 2.7
O=C(NCCCN1CCN(c2cccc(Cl)c2)CC1)c1nc(-c2ccncc2)no1 | 2.15
COc1ccc(-c2noc(CCC(=O)NCCCN3CCC(Cc4ccccc4)CC3)n2)cc1 | 28.6
Cc1ccc(OCC(O)Cn2c(=N)n(CCN3CCCCC3)c3ccccc32)cc1 (stereo not given) | 65.5

Now look at this entry.
Request: Looking for the measured side scatter shift of CCOC(=O)c1c(-c2ccc(C)o2)csc1NC(=O)CN1CCN(CC)CC1 , can you help?
Result: 8.3

====

For each entry below, report its side scatter shift value.
- test: LNCaP granularity increase inducers, single-point recheck – cell-based, side scatter shift, flow cytometry, confirmation (AID 1069);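 note: LNCaP human prostate cancer cells in low-serum medium with charcoal-stripped FBS; percent of cells with raised granularity gated so DMSO controls show 10%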
- assay context: LNCaP differentiation, 4 d, side scatter shift, at 10 µM, stronger effect = higher value
Give bare numbers, in %.

compound | assay result
CN(CC(=O)Nc1ccc2c(c1)OCCO2)S(=O)(=O)c1cccc2cccnc12 | 3.95
Cc1oc(-c2cccc(Cl)c2)nc1CN1CCCC(C(=O)NC(C)c2ccc3c(c2)OCCO3)C1 (stereo unspecified) | 1.65
O=C(CCNC(=O)Cn1ccc2ccccc2c1=O)NCCCN1CCN(c2ccc(F)cc2)CC1 | 7.25
CCOC(=O)N1CCN(C(=O)CN(c2cccc(C(F)(F)F)c2)S(=O)(=O)c2ccccc2)CC1 | 5.4
Cn1cc(CNC(=O)C2c3ccccc3Oc3ccccc32)cn1 | 3
O=c1cc(N2CCN(c3ccc(F)cc3)CC2)[nH]c(=O)n1C1CCCCC1 | 5.4
COc1ccc2c(c1OC)C(=O)N(C(C)C(=O)O)C2=O (stereo unspecified) | 5.3
COc1ccccc1N1CCN(c2nc3ccccc3nc2C(C#N)C(=O)OC(C)C)CC1 (stereo unspecified) | 21.1

Record side scatter shift per entry; entries follow.
1. COc1ccc(OC)c(N=Cc2c(O)[nH]c3ccccc23)c1
2. O=C(Cn1c(=O)[nH]c2ccsc2c1=O)NC1CCCCCC1
3. O=C(C1CCN(S(=O)(=O)c2cccc3nsnc23)CC1)N1CC=C(c2ccccc2)CC1
4. Cc1nc2nc(C)c(CCC(=O)NCCCN3CCN(c4cccc(Cl)c4)CC3)c(C)n2n1
5. COc1ccc(-c2cc(C(F)(F)F)nc(N3CCN(Cc4ccccc4)CC3)n2)cc1OC

Result:
6.1
5.85
9.3
7.4
5.3

Batch request: side scatter shift for each of the following compounds.
1. Nc1cccc2cnccc12
2. O=C(O)C1CCCCC1C(=O)Nc1cnn(Cc2ccccc2)c1 (stereo unspecified)
3. CCOC(=O)c1c(NCc2ccc3c(c2)OCO3)c2ccccc2[nH]c1=O
4. COc1ccc(-n2cc(-c3ccccc3)c3c(N4CCN(CCO)CC4)ncnc32)cc1
5. Cc1oc(-c2ccc(Cl)cc2)nc1CN1CCCC(C(=O)NCCCN2CCCC2=O)C1 (stereo unspecified)
6. COc1ccc(S(=O)(=O)Nc2ccc(F)c(Cl)c2)cc1OC
7. CCN1CCN(c2ncc(C(=O)Nc3cc(Cl)c(OC)cc3OC)c3ccccc23)CC1

Result:
1. 6.95
2. 5.15
3. 4.75
4. 9.55
5. 13.6
6. 6.75
7. 19.2

Request: Find the recorded side scatter shift belonging to CCOC(=O)N1CCC(NC(=O)C2CCCN(Cc3nc(-c4cccc(Cl)c4)oc3C)C2)CC1 (stereo unspecified) and report it.
Result: 5.35
